# SYSTEM_UNDER_TEST: Multidrug resistance-associated protein 1 (Homo sapiens)
# Sequence (P33527 whole entry): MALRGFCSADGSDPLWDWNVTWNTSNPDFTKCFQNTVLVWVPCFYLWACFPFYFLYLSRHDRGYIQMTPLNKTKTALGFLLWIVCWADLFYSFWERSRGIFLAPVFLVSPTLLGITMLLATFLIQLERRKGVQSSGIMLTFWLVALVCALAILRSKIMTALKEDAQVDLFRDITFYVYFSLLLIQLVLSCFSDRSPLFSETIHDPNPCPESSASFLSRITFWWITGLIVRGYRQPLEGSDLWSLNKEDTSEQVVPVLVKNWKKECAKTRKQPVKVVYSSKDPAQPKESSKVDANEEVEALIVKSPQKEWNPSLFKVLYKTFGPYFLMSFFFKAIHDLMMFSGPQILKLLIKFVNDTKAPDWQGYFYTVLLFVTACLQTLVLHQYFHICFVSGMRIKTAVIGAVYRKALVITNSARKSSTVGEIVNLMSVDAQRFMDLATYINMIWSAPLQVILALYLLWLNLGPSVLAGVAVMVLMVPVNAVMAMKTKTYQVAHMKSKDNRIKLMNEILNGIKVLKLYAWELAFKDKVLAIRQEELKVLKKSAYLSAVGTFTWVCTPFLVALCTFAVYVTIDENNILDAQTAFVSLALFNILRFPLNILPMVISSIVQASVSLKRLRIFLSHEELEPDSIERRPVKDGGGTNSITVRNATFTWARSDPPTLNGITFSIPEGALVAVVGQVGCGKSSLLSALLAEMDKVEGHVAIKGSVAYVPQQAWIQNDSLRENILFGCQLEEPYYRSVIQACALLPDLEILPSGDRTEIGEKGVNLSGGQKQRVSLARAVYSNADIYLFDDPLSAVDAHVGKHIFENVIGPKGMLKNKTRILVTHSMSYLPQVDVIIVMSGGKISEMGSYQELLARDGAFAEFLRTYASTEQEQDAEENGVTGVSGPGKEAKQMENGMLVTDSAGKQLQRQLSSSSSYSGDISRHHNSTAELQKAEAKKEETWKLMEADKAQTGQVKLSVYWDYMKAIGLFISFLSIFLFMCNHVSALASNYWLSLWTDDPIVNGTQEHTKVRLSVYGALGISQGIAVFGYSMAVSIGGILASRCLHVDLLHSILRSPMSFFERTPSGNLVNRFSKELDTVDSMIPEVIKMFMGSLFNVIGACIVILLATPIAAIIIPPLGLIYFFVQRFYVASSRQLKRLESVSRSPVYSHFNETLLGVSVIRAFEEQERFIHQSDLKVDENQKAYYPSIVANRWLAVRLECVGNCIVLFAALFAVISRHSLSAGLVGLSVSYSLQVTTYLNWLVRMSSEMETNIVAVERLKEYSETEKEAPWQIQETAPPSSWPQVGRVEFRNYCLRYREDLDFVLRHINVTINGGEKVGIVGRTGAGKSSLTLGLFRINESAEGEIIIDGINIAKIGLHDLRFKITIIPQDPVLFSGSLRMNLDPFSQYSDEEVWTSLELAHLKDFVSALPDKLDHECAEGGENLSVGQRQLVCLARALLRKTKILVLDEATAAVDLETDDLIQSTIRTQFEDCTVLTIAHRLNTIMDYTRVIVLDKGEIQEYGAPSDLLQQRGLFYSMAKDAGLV
# MEASUREMENT_PROTOCOL: Inhibitory concentration against multidrug resistance associated protein 1
Measured IC50, listed per entry.

>  <STRUCTURE_NOTATION>
N#Cc1c2n(c3c(N4CCN(CCc5ccc(Cl)cc5)CC4)ncnc13)CCCC2

>  <IC50>
≥ 0.25 µM

$$$$
>  <STRUCTURE_NOTATION>
N#Cc1c2n(c3c(N4CCN(CCc5cccc(Cl)c5)CC4)ncnc13)CCCC2

>  <IC50>
≥ 0.25 µM

$$$$
>  <STRUCTURE_NOTATION>
N#Cc1c2n(c3c(NS(=O)(=O)Cc4ccccc4)ncnc13)CCCC2

>  <IC50>
≥ 0.25 µM

$$$$
>  <STRUCTURE_NOTATION>
O=C(c1ccccc1)c1c2n(c3c(N4CCN(CCc5ccccc5)CC4)ncnc13)CCCC2

>  <IC50>
≥ 0.25 µM

$$$$
>  <STRUCTURE_NOTATION>
N#Cc1c2n(c3c(N4CCN(CCc5cccc([N+](=O)[O-])c5)CC4)ncnc13)CCCC2

>  <IC50>
≥ 0.25 µM

$$$$
>  <STRUCTURE_NOTATION>
Cc1nc(-c2c3n(c4c(N5CCN(CCc6ccccc6)CC5)ncnc24)CCCC3)no1

>  <IC50>
≥ 0.25 µM

$$$$
>  <STRUCTURE_NOTATION>
Cc1cnc2c(c1C#N)c1ncnc(N3CCN(CCc4ccc(F)c(F)c4)CC3)c1n2C

>  <IC50>
≥ 0.25 µM

$$$$
>  <STRUCTURE_NOTATION>
N#Cc1c2n(c3c(N4CCN(CCCc5ccccc5)CC4)ncnc13)CCCC2

>  <IC50>
≥ 0.25 µM

$$$$
>  <STRUCTURE_NOTATION>
Cc1c([N+](=O)[O-])nc2c(c1C(N)=O)c1ncnc(N3CCN(CCc4ccc(F)c(F)c4)CC3)c1n2C

>  <IC50>
< 0.25 µM

$$$$

Data provenance: ChEMBL document CHEMBL1143495
